Target: T1, 4H3449-AA
T1 chain: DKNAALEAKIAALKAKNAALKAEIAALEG
Assay: two-hybrid library CCmax;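 also: natural log of median RNA to DNA barcode read ratio; higher means stronger binding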
Conditions: mean of both orientations
Measured interaction score of individual entries
Write the value as a bare number.

The cases that follow already have their interaction score on record.
[
  {
    "binder": "DEIAALEAENAALKAKNAALKAEIAALEG [4H249-AA]",
    "measured_value": -1.43
  },
  {
    "binder": "DENAALKAKIAALKAENAALEAKIAALKG [4H1878-AA]",
    "measured_value": 1.63
  },
  {
    "binder": "DEIAALEAENAALKAKIAALKAENAALEG [4H235-AA]",
    "measured_value": 0.816
  },
  {
    "binder": "DKIAALKAEIAALEAENAALEAENAALKG [4H2580-AA]",
    "measured_value": 0.308
  },
  {
    "binder": "DEIAALEAKIAALKAEIAALEAENAALKG [4H324-AA]",
    "measured_value": -1.69
  },
  {
    "binder": "DKIAALKAENAALKAEIAALEAKNAALKG [4H2760-AA]",
    "measured_value": -1.27
  },
  {
    "binder": "DENAALEAEIAALEAEIAALKAKNAALKG [4H1040-AA]",
    "measured_value": -0.935
  },
  {
    "binder": "DKIAALKAKIAALKAENAALEAKNAALEG [4H2903-AA]",
    "measured_value": -1.8
  },
  {
    "binder": "DEIAALEAENAALEAEIAALEAKIAALEG [4H133-AA]",
    "measured_value": 0.625
  },
  {
    "binder": "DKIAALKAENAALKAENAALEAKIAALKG [4H2774-AA]",
    "measured_value": -0.756
  }
]

Now, please, on to the next binder.
Prompt: For the binder DENAALEAKNAALEAKIAALKAEIAALEG [4H1449-AA] , what interaction score is on record?
Completion: -1.65
